# Tested on: HCC-2998 colon
# Assay info: NCI tumour cell line growth inhibition, 48 h; in the data active means GI50 below about 0.43 µM; inactive means the rest
Outcomes: YES (active), NO (inactive)

Entry smiles	Cat
COc1cc(Nc2nccc(Nc3ccc4c(C)[nH]nc4c3)n2)cc(OC)c1OC	NO
O=c1c2cc(Cl)ccc2oc2ccc(OCCCCCN3CCCCC3)cc12	NO
O=c1c(Oc2ccc(F)cc2F)cc2cnc(NC3CCOCC3)nc2n1C1CCS(=O)(=O)CC1	NO
COc1cc(OC)c(/C=C/S(=O)(=O)Cc2cnc(OC)c(N)c2)c(OC)c1	YES
C=C1C(=O)O[C@H]2[C@H]1CC/C(CNC(=O)c1cc3cc(OC)ccc3[nH]1)=C\CC[C@@]1(C)O[C@@H]21	NO
